Answer each item with its documented Ki.
# assayed-system: PKC delta kinase (Homo sapiens)
# Sequence (Q05655 whole entry): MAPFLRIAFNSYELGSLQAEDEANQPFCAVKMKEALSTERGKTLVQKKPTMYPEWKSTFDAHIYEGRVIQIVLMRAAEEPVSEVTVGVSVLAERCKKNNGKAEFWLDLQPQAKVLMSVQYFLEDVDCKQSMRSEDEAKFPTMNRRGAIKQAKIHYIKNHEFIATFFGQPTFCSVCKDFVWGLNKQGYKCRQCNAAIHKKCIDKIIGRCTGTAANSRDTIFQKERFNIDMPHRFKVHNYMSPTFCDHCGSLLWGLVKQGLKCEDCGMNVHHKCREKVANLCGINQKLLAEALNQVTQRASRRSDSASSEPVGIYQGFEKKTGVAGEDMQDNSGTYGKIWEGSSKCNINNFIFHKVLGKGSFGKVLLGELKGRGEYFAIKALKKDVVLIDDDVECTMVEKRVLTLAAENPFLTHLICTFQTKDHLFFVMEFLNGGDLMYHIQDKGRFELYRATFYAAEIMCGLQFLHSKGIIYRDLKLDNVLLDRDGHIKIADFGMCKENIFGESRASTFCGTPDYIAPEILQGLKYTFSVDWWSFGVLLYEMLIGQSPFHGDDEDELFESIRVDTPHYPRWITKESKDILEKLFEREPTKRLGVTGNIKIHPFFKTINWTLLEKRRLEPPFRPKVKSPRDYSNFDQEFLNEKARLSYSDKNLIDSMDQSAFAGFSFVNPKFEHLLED
# run-description: PKC delta kinase inhibition, coupled-enzyme NADH absorbance assay (Ki)
# Format: biochemical
# experimental-setup: 150 μM ATP, 46 nM PKC delta, 30° C.; read-out: Ki PKC delta

The measured Ki that CC(CC#N)c1cc(Br)cc(-c2ccnc3[nH]ncc23)c1 (stereo not shown) showed for PKC delta kinase (Homo sapiens) is < 2800 nM

The measured Ki that CC(C)(O)CCc1cc(-c2ccnc3[nH]nc(C(F)(F)F)c23)cc(C2(C#N)CC2)c1 showed for PKC delta kinase (Homo sapiens) is > 1200 nM

The measured Ki that CCc1n[nH]c2nccc(-c3cc(F)cc(C4(CN)CCC4)c3)c12 showed for PKC delta kinase (Homo sapiens) is < 500 nM

The measured Ki that CCC1(c2cccc(-c3ccnc4[nH]nc(C(F)(F)F)c34)c2)CNC(=O)O1 (stereo not shown) showed for PKC delta kinase (Homo sapiens) is < 2800 nM

The measured Ki that CCC(C)(CN)c1cc(F)cc(-c2ccnc3[nH]nc(Cl)c23)c1 (stereo not shown) showed for PKC delta kinase (Homo sapiens) is < 50 nM

The measured Ki that FC(F)(F)c1n[nH]c2nccc(-c3cccc(C4(COCc5ccccc5)CC4)c3)c12 showed for PKC delta kinase (Homo sapiens) is > 2000 nM

The measured Ki that CCC(C)(C#N)c1cc(CCCO)cc(-c2ccnc3[nH]ncc23)c1 (stereo not shown) showed for PKC delta kinase (Homo sapiens) is > 2000 nM

The measured Ki that Cc1n[nH]c2nccc(-c3cc(F)cc(C4(CN)CCC4)c3)c12 showed for PKC delta kinase (Homo sapiens) is < 500 nM

The measured Ki that CCC(O)(c1cc(C)cc(-c2ccnc3[nH]nc(C(F)(F)F)c23)c1)C1CNC1 (stereo not shown) showed for PKC delta kinase (Homo sapiens) is < 500 nM

The measured Ki that CCc1n[nH]c2nccc(-c3cccc(C4(CN)COC4)c3)c12 showed for PKC delta kinase (Homo sapiens) is < 500 nM

The measured Ki that N#CC1(c2cccc(-c3ccnc4[nH]ncc34)c2)CCC1 showed for PKC delta kinase (Homo sapiens) is < 2800 nM

The measured Ki that C=C1CCc2ccc(-c3ccnc4[nH]ncc34)cc21 showed for PKC delta kinase (Homo sapiens) is > 2800 nM

The measured Ki that N#CC1(c2cc(CCO)cc(-c3ccnc4[nH]ncc34)c2)CC1 showed for PKC delta kinase (Homo sapiens) is > 2000 nM

The measured Ki that C=CCC(C)(C#N)c1cccc(-c2ccnc3[nH]ncc23)c1 (stereo not shown) showed for PKC delta kinase (Homo sapiens) is < 2800 nM

The measured Ki that CC(C)(C#N)c1cc(CN)cc(-c2ccnc3[nH]ncc23)c1 showed for PKC delta kinase (Homo sapiens) is > 2800 nM

The measured Ki that CC(C)C(C)(C#N)c1cccc(-c2ccnc3[nH]ncc23)c1 (stereo not shown) showed for PKC delta kinase (Homo sapiens) is < 2800 nM

The measured Ki that OCC1CCc2ccc(-c3ccnc4[nH]ncc34)cc21 (stereo not shown) showed for PKC delta kinase (Homo sapiens) is > 2800 nM

The measured Ki that CCC(C)(CN)c1cccc(-c2ccnc3[nH]nc(C(F)(F)F)c23)c1 (stereo not shown) showed for PKC delta kinase (Homo sapiens) is < 50 nM

The measured Ki that Cc1cc(-c2ccnc3[nH]nc(Cl)c23)cc(C2(CN)CCC2)c1 showed for PKC delta kinase (Homo sapiens) is < 500 nM

###

Answer each item with its documented pKi.
# assayed-system: PKC alpha kinase (Homo sapiens, UniProt P17252)
# run-description: PKC alpha kinase inhibition, coupled-enzyme NADH absorbance assay (Ki)
# Format: biochemical
# experimental-setup: 130 μM ATP, 4.5 nM PKC alpha, 30° C.; read-out: Ki PKC alpha
# Protocol: An assay buffer solution was prepared which consisted of 100 mM HEPES (pH 7.5), 10 mM MgCl2, 25 mM NaCl, 0.1 mM EDTA, 100 μM CaCl2 and 0.01% Brij. […] To 16 μL of this enzyme buffer, in a 384 well plate, was added 1 μL of VRT stock solution in DMSO. […] Initial rate data was determined from the rate of change of absorbance at 340 nm (corresponding to stoichiometric consumption of NADH) using a Molecular Devices Spectramax plate reader (Sunnyvale, Calif.) over 15 mins at 30° C. […]
pKi: −log10 of the molar value.

# pKi of C=Cc1ccc(-c2ccnc3n[nH]cc23)cc1C(C)(C)C#N [Compound 84] = < 5.55

# pKi of NCC1(c2cc(F)cc(-c3ccnc4[nH]ncc34)c2)CCC1 [Compound 188] = > 6.30

# pKi of COc1ccc(CC(C)(CN)c2cccc(-c3ccnc4[nH]ncc34)c2)cc1 (stereo not drawn) [Compound 174] = > 6.30

# pKi of NCc1cccc(-c2ccnc3[nH]nc(C4CC4)c23)c1 [Compound 269] = < 5.92

# pKi of CCc1n[nH]c2nccc(-c3cc(F)cc(C4(CN)CCC4)c3)c12 [Compound 263] = > 7.30

# pKi of CCC(C)(C#N)c1cc(-c2ccnc3[nH]ncc23)cc(C(F)(F)CCC2CCCC2)c1 (stereo not drawn) [Compound 117] = < 5.92

# pKi of CCCc1cc(-c2ccnc3[nH]ncc23)cc(C(C)(C)CN)c1 [Compound 42] = > 5.55

# pKi of OCC1(c2cccc(-c3ccnc4[nH]ncc34)c2)CC1 [Compound 243] = < 5.92

# pKi of Cc1cc(-c2ccnc3[nH]nc(C(F)(F)F)c23)cc(C(C)(C)C#N)c1 [Compound 324] = > 6.30

###

Answer each item with its documented Ki.
# assayed-system: PKC alpha kinase (Homo sapiens)
# run-description: PKC alpha kinase inhibition, coupled-enzyme NADH absorbance assay (Ki)
# Assay type: biochemical
# experimental-setup: 130 μM ATP, 4.5 nM PKC alpha, 30° C.; read-out: Ki PKC alpha

# Ki of CCc1cc(-c2ccnc3[nH]nc(C(F)(F)F)c23)cc(C2(CN)CCC2)c1 = < 500 nM

# Ki of C=Cc1cc(-c2ccnc3[nH]ncc23)cc(C(C)(C)CN)c1 = < 2800 nM

# Ki of NCC1(c2cccc(-c3ccnc4[nH]ncc34)c2)CCCC1 = < 2800 nM

# Ki of N#CC1(c2cc(CCN)cc(-c3ccnc4[nH]ncc34)c2)CC1 = > 1200 nM

# Ki of CCC(C)(C#N)c1cc(/C=C/C#N)cc(-c2ccnc3[nH]ncc23)c1 (stereo not drawn) = > 1200 nM

# Ki of CCC1(c2cccc(-c3ccnc4[nH]nc(C(F)(F)F)c34)c2)CNC(=O)O1 (stereo not drawn) = < 500 nM

# Ki of C/C=C\c1cc(-c2ccnc3[nH]ncc23)cc(C(C)(C#N)CC)c1 (stereo not drawn) = > 2800 nM

# Ki of COCCC(CN)c1cccc(-c2ccnc3[nH]nc(C(F)(F)F)c23)c1 (stereo not drawn) = < 2800 nM

# Ki of CC#CC[C@@](C)(CN)c1cccc(-c2ccnc3[nH]ncc23)c1 = < 2800 nM

# Ki of CC(C)(C#N)c1cc(-c2ccc[nH]2)cc(-c2ccnc3[nH]ncc23)c1 = > 2800 nM

# Ki of CC(C)(O)C#Cc1cc(-c2ccnc3[nH]nc(C(F)(F)F)c23)cc(C2(C#N)CC2)c1 = > 1200 nM

# Ki of CCc1cc(-c2ccnc3[nH]nc(Cl)c23)cc(C(C)(CC)CN)c1 (stereo not drawn) = < 50 nM

# Ki of CCCc1cc(-c2ccnc3[nH]ncc23)cc(C2(CN)CCCC2)c1 = > 2800 nM

# Ki of CC(C)=CCC(C)(CN)c1cccc(-c2ccnc3[nH]ncc23)c1 (stereo not drawn) = < 500 nM

# Ki of CC(C#N)(Cc1cccnc1)c1cccc(-c2ccnc3[nH]ncc23)c1 (stereo not drawn) = > 1200 nM

# Ki of C=CCC1(c2cc(C)cc(-c3ccnc4[nH]ncc34)c2)CNC(=O)O1 (stereo not drawn) = < 500 nM

# Ki of CC(CN)(Cc1ccccc1)c1cccc(-c2ccnc3[nH]ncc23)c1 (stereo not drawn) = < 500 nM

# Ki of N#CC1(c2cccc(-c3ccnc4[nH]nc(C(F)(F)F)c34)c2)CCC1 = < 2800 nM

# Ki of CCC(C)(CN)c1cc(C)cc(-c2ccnc3[nH]ncc23)c1 (stereo not drawn) = < 500 nM

# Ki of COCC[C@](C)(CN)c1cccc(-c2ccnc3[nH]nc(C(F)(F)F)c23)c1 = < 500 nM

# Ki of C=Cc1cc(-c2ccnc3[nH]ncc23)cc(C(C)(C)C#N)c1 = < 2800 nM

# Ki of CCCCNC(CC)c1cccc(-c2ccnc3[nH]ncc23)c1 (stereo not drawn) = > 1200 nM

# Ki of CC(O)Cc1cc(-c2ccnc3[nH]ncc23)cc(C(C)(C)C#N)c1 (stereo not drawn) = > 2800 nM

# Ki of CCc1n[nH]c2nccc(-c3cccc(CN)c3)c12 = > 1200 nM

# Ki of CCC1(c2cc(C)cc(-c3ccnc4[nH]nc(C(F)(F)F)c34)c2)CNC(=S)O1 (stereo not drawn) = < 500 nM

# Ki of N#CC1(c2cc(-c3ccnc4[nH]ncc34)cc(C(F)(F)CN)c2)CC1 = < 2800 nM

# Ki of CCC(C)(CN)c1cc(F)cc(-c2ccnc3[nH]nc(C(F)(F)F)c23)c1 (stereo not drawn) = < 50 nM

# Ki of CNCC(F)(F)c1cc(-c2ccnc3[nH]ncc23)cc(C2(C#N)CC2)c1 = < 2800 nM

# Ki of N#CC1(c2cccc(-c3ccnc4[nH]ncc34)c2)CCCC1 = < 2800 nM

# Ki of CCc1cc(-c2ccnc3[nH]ncc23)cc(C(C)(C)C#N)c1 = < 2800 nM

# Ki of NCC1(c2cc(F)cc(-c3ccnc4[nH]nc(C5CC5)c34)c2)CCC1 = < 500 nM

# Ki of N#CCC1(c2cccc(-c3ccnc4[nH]ncc34)c2)CNC1 = < 500 nM

# Ki of CCC(C)(C#N)c1cc(CCCF)cc(-c2ccnc3[nH]ncc23)c1 (stereo not drawn) = < 2800 nM

# Ki of CCC(C)(C#N)c1cc(CC#N)cc(-c2ccnc3[nH]ncc23)c1 (stereo not drawn) = > 1200 nM

# Ki of CCC(C)(C#N)c1cc(-c2ccnc3[nH]ncc23)cc(C(F)(F)F)c1 (stereo not drawn) = < 2800 nM

# Ki of CCC(C)(CN)c1cc(CCO)cc(-c2ccnc3[nH]ncc23)c1 (stereo not drawn) = < 500 nM
